Where do these numbers come from? They come from patent US7071220B2.

Where a name gives a salt, the structure may show the parent alone.

- compound: "Cc1c(S(=O)(=O)Nc2ccc(-c3nc(CO)co3)cc2S(C)(=O)=O)sc2ccc(F)cc12"
  melting point: "242 to 244 °C"
- compound: "Cc1c(S(=O)(=O)Nc2ccc(-c3cnco3)cc2S(C)(=O)=O)sc2ccc(F)cc12"
  melting point: "199 to 201 °C"
- compound: "Cc1c(S(=O)(=O)Nc2ccc(-c3nc(C(=O)O)co3)cc2S(C)(=O)=O)sc2ccc(F)cc12"
  melting point: "207 to 208 °C"
- compound: "COC(=O)c1coc(-c2ccc(NS(=O)(=O)c3sc4ccc(Cl)cc4c3C)c(S(C)(=O)=O)c2)n1"
  melting point: "296 to 298 °C"
- compound: "Cc1coc(-c2ccc(NS(=O)(=O)c3sc4ccc(F)cc4c3C)c(S(C)(=O)=O)c2)n1"
  melting point: "206 to 208 °C"
- compound: "Cc1c(S(=O)(=O)Nc2ccc(C(=O)NCC(=O)O)cc2S(C)(=O)=O)sc2ccc(Cl)cc12 (as salt: sodium)"
  melting point: "290 to 292 °C"
